- Target System: human GluN1/GluN2B (Homo sapiens (Human), UniProt Q05586+Q13224)
- Sequence (Q13224 27-1484, other chains not shown): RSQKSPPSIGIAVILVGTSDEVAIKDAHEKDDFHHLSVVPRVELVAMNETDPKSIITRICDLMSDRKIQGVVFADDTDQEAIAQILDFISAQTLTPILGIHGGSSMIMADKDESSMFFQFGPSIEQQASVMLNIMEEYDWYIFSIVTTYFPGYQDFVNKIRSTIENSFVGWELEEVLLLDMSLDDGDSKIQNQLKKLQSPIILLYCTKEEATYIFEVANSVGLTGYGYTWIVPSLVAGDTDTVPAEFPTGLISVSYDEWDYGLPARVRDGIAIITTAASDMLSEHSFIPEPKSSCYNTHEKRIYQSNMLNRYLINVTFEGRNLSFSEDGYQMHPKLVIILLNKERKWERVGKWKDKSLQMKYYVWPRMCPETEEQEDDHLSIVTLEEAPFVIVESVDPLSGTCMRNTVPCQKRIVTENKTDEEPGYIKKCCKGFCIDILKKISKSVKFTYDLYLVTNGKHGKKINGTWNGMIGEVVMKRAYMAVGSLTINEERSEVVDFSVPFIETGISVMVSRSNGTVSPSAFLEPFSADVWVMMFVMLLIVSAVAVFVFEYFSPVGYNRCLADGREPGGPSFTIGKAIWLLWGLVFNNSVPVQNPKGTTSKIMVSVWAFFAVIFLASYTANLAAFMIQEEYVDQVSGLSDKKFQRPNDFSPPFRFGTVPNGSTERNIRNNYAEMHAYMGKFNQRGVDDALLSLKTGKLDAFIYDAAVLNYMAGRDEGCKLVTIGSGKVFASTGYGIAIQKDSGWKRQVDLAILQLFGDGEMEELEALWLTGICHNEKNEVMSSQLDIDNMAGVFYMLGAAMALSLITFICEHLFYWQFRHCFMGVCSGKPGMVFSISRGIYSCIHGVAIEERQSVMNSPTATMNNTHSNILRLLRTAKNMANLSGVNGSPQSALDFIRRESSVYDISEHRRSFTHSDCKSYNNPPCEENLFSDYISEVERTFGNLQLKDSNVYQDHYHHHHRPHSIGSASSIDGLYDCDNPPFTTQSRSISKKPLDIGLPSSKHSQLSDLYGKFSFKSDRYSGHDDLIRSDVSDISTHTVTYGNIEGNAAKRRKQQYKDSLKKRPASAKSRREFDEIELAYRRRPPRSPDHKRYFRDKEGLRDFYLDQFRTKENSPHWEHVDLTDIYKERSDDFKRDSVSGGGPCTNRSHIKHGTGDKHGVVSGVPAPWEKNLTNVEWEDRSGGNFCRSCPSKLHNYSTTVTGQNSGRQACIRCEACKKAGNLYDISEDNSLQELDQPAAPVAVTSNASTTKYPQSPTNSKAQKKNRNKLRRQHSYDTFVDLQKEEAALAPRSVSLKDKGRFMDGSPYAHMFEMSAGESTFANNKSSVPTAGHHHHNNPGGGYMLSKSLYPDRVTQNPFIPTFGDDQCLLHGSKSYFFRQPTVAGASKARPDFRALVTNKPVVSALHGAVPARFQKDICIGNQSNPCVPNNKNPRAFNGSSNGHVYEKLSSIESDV
- Measurement Notes: Two electrode voltage-clamp recordings from Xenopus laevis oocytes, GluN2B potency and pH dependence
- Format: cell-based
- Measurement Setup: pH 7.6; read-out: IC50 (μM) pH 7.6
// NB: equality with 0.6 µM counts as condition not met; only IC50 strictly below is condition met

[
  {
    "Smiles": "CS(=O)(=O)Nc1ccc(OC[C@H](O)CN2CCN(c3ccc(F)c(F)c3)CC2)cc1",
    "Class Assignment": "condition met"
  },
  {
    "Smiles": "CCc1ccc(N2CCN(C[C@@H](O)COc3ccc(O)cc3)CC2)cc1",
    "Class Assignment": "condition met"
  }
]

Qu. Take the compound CCc1ccc(N2CCN(C[C@H](O)COc3ccc(O)cc3)CC2)cc1 and say whether its IC50 is less than 0.6 µM.
Ans. condition met

Qu. Take the compound CS(=O)(=O)Nc1ccc(OC[C@@H](O)CN2CCN(c3ccc(F)c(F)c3)CC2)cc1 and say whether its IC50 is less than 0.6 µM.
Ans. condition met

Qu. Take the compound CCCCc1ccc(N2CCN(C[C@@H](O)COc3ccc(O)cc3)CC2)cc1 and say whether its IC50 is less than 0.6 µM.
Ans. condition not met

----------
- Target System: human GluN1/GluN2B (Homo sapiens (Human), UniProt Q05586+Q13224)
- Measurement Notes: Two electrode voltage-clamp recordings from Xenopus laevis oocytes, GluN2B potency and pH dependence
- Format: cell-based
- Measurement Setup: pH 7.6; read-out: IC50 (μM) pH 7.6
- Procedure: Two Electrode Voltage-Clamp Recordings from Xenopus laevis Oocytes Stage V-VI Xenopus laevis unfertilized oocytes were purchased from Ecocyte (Austin, Texas) and injected with 5 ng of GluN1 and 10 ng of GluN2B cRNAs. The cDNAs for human GluN1 and GluN2B, encoding NCBI reference sequences NM_007327.3 and NM_000834.3, respectively, were linearized and cRNAs made as previously described (Traynelis et al., J Neurosci, 1998, 18(16):6163-75). […]
// NB: equality with 0.6 µM counts as 0 (no); only IC50 strictly below is 1 (yes)

Qu. Take the molecule Oc1ccc(OC[C@H](O)CN2CCN(c3ccc(F)c(F)c3)CC2)cc1 and say whether its IC50 is less than 0.6 µM.
Ans. 1 (yes)

Qu. Take the molecule CCCCc1ccc(N2CCN(C[C@H](O)COc3ccc(O)cc3)CC2)cc1 and say whether its IC50 is less than 0.6 µM.
Ans. 0 (no)

Qu. Take the molecule NC(=O)Nc1ccc(OC[C@H](O)CN2CCN(c3ccc(Cl)c(Cl)c3)CC2)cc1 and say whether its IC50 is less than 0.6 µM.
Ans. 1 (yes)

Qu. Take the molecule NC(=O)Nc1ccc(OC[C@@H](O)CN2CCN(c3ccc(C(F)(F)F)cc3)CC2)cc1 and say whether its IC50 is less than 0.6 µM.
Ans. 1 (yes)

Qu. Take the molecule CCc1ccc(N2CCN(C[C@H](O)COc3ccc(NC(N)=O)cc3)CC2)cc1 and say whether its IC50 is less than 0.6 µM.
Ans. 0 (no)

Qu. Take the molecule CCCc1ccc(N2CCN(C[C@@H](O)COc3ccc(NC(N)=O)cc3)CC2)cc1 and say whether its IC50 is less than 0.6 µM.
Ans. 1 (yes)

Qu. Take the molecule Cc1ccc(N2CCN(C[C@@H](O)COc3ccc(O)cc3)CC2)cc1 and say whether its IC50 is less than 0.6 µM.
Ans. 1 (yes)

Qu. Take the molecule CC(C)c1ccc(N2CCN(C[C@H](O)COc3ccc(O)cc3)CC2)cc1 and say whether its IC50 is less than 0.6 µM.
Ans. 0 (no)
